Could you please report measured Ratio for the items listed next?
ASSAYED_SYSTEM: Hexokinase-4 (Homo sapiens)
TEST_SUMMARY: Activation of human recombinant glucokinase expressed in Escherichia coli coexpressing G6PDH at 10 uM using 20 mM glucose measured as ratio of enzyme activation in treated to untreated control by G6PDH coupled continuous spectrophotometric assay
One number for each entry.

In [3]: df
Out[3]:
                                 smiles_str  number
0  COc1ccccc1-c1cc(C(=O)Nc2nc3c(s2)CCC3)c(C)o1    0.93

Items follow; give Ratio for each.
1. O=C(Nc1nc2c(s1)CCCC2)c1ccncc1
2. CC(=O)OCc1cc(C(=O)Nc2nc3c(s2)CCC3)c(C)o1
3. Cc1oc(-c2cccc(C#N)c2)cc1C(=O)Nc1nc2c(s1)CCC2
4. COCCCc1cc(C(=O)Nc2nc3c(s2)CCC3)c(C)o1
5. CCc1sc(-c2ccccc2C(N)=O)cc1C(=O)Nc1nc2c(s1)CCC2
6. CC(=O)c1ccccc1-c1cc(C(=O)Nc2nc3c(s2)CCC3)co1
7. Cc1sc(-c2ccccc2C(N)=O)cc1C(=O)Nc1nc2c(s1)CCC2
8. CCc1oc(-c2ccccc2C(C)=O)cc1C(=O)Nc1nc2c(s1)CCC2

Outgoing:
[0.93, 1.51, 0.85, 1.51, 1.92, 1.42, 1.8, 1.41]

Items follow; give Ratio for each.
1. Cc1cc(C(=O)Nc2nc3c(s2)CCCC3)cs1
2. COCc1cc(C(=O)Nc2nc3c(s2)CCC3)c(C)o1

Outgoing:
1.17
1.41
